Numbers sourced from patent US7563793B2.

Provide the reported melting point of each item.

**Query** # melting point lookup, item CC[C@@H]1c2cccn2-c2ccc(Br)cc2N1S(=O)(=O)c1ccc(O)cc1 [Example 78]
**Result** 187 to 189 °C

**Query** Name the reported melting point value associated with the compound CC[C@H]1c2cccn2-c2ccc(Br)cc2N1S(=O)(=O)c1ccc(O)cc1 [Example 77]
**Result** 187 to 189 °C

**Query** I am curious: what melting point value has been reported for CC[C@H]1c2ccc(C#N)n2-c2cc(F)c(F)cc2N1S(=O)(=O)c1ccc(OS(N)(=O)=O)cc1 [Example 104] ?
**Result** 196 to 201 °C

**Query** Which melting point reading was recorded for the compound CCC1c2ccc(C#N)n2-c2cc(F)c(F)cc2N1S(=O)(=O)c1cccc(O)c1 (stereo not drawn) [Example 85] ?
**Result** 179 to 182 °C

**Query** For the compound shown here, CCC1c2ccc(C#N)n2-c2ccc(F)cc2N1S(=O)(=O)c1ccc(O)c(C)c1 (stereo not drawn) [Example 33] , give the reported melting point.
**Result** 192 to 194 °C

**Query** Need melting point, item CCC1c2ccc(C(N)=O)n2-c2ccc(F)cc2N1S(=O)(=O)c1ccc(O)cc1 (stereo not drawn) [Example 36]
**Result** 168 to 170 °C (dec.)

**Query** Fill in the blank: the reported melting point of CCC1c2ccc(C#N)n2-c2cc(F)c(F)cc2N1S(=O)(=O)c1ccc(O)c(C)c1 (stereo not drawn) [Example 12] is ____.
**Result** 201 to 203 °C

**Query** Looking for the measured melting point of CCC1c2ccc(C#N)n2-c2cc(F)c(F)cc2N1S(=O)(=O)c1ccc(O)cc1 (stereo not drawn) [Example 93] , can you help?
**Result** 205 °C

**Query** // query melting point value for entry CCC1c2cccn2-c2c(cc(F)c(F)c2F)N1S(=O)(=O)c1cccc(O)c1 (stereo not drawn) [Example 100]
**Result** 143 to 145 °C

**Query** For CC[C@@H]1c2cccn2-c2cc(F)c(F)cc2N1S(=O)(=O)c1ccc(O)c(C)c1 [102 (R)] , what is its reported melting point?
**Result** 160 to 162 °C

**Query** Given the entry CCC1c2cccn2-c2ccc(Cl)cc2N1C(=O)c1ccc(O)cc1O (stereo not drawn) [Example 124] , report its measured melting point.
**Result** 198 to 201 °C

**Query** // returns reported melting point for input CCC1c2ccc(C#N)n2-c2ccc(Br)cc2N1S(=O)(=O)c1ccc(O)cc1 (stereo not drawn) [Example 80]
**Result** 190 to 192 °C

**Query** Report melting point for C[C@@H]1c2cccn2-c2ccc(F)cc2N1C(=O)c1ccc(O)cc1 [123 (R)] please.
**Result** 125 to 129 °C

**Query** State the recorded melting point for this entry: CCC1c2cccn2-c2c(cc(F)c(F)c2F)N1S(=O)(=O)c1ccc(O)cc1 (stereo not drawn) [Example 98]
**Result** 175 to 176 °C

**Query** # input compound: CCC1c2cccn2-c2cc(O)c(F)cc2N1S(=O)(=O)c1ccc(O)c(C)c1 (stereo not drawn) [Example 74] ; wanted: its melting point
**Result** 194 to 196 °C

**Query** // returns reported melting point for input CC[C@H]1c2cccn2-c2cc(F)c(F)cc2N1S(=O)(=O)c1ccc(O)c(C)c1 [102 (S)]
**Result** 161 to 163 °C

**Query** Look up melting point for this compound: CC[C@H]1c2ccc(C#N)n2-c2cc(F)c(F)cc2N1S(=O)(=O)c1ccc(OS(N)(=O)=O)c(C)c1 [Example 103]
**Result** 204 to 207 °C

**Query** Endpoint output: melting point of CCC1c2ccc(C#N)n2-c2ccc(F)cc2N1S(=O)(=O)c1ccc(O)cc1 (stereo not drawn) [Example 35] . Value?
**Result** 169 to 171 °C

**Query** Any idea what its melting point is? The compound is CC[C@@H]1c2cccn2-c2ccc(Cl)cc2N1C(=O)c1ccc(O)cc1O [125 (R)]
**Result** 213 to 214 °C

**Query** Quick check: melting point of CC[C@@H]1c2ccc(C#N)n2-c2ccc(Br)cc2N1S(=O)(=O)c1ccc(O)cc1 [Example 91] ?
**Result** 182 to 185 °C

**Query** Dear colleague, I am looking for the recorded melting point of the following compound: CC[C@@H]1c2cccn2-c2ccc(F)cc2N1C(=O)c1cccc(O)c1 [127 (R)]
**Result** 115 to 116 °C

**Query** Given the compound CCC1c2cccn2-c2ccc(F)cc2N1S(=O)(=O)c1cccc(O)c1 (stereo not drawn) [Example 87] , what is its reported melting point?
**Result** 153 to 154 °C

**Query** Which melting point value is on record for CC[C@H]1c2cccn2-c2c(cc(F)c(F)c2F)N1S(=O)(=O)c1ccc(O)cc1 [97 (S)] ?
**Result** 155 to 156 °C

**Query** Could you tell me which melting point is on file for CCC1c2cccn2-c2ccc(Br)cc2N1S(=O)(=O)c1cccc(O)c1 (stereo not drawn) [Example 82] ?
**Result** 176 to 178 °C

**Query** Give its melting point value. Item: CCC1c2cccn2-c2ccc(F)cc2N1C(=O)c1ccc(O)cc1O (stereo not drawn) [Example 120]
**Result** 153 to 155 °C

**Query** I have this compound here, CC[C@@H]1c2ccc(C#N)n2-c2cc(F)c(F)cc2N1S(=O)(=O)c1ccc(O)cc1 [Example 101 (R)] , and I need its recorded melting point.
**Result** 194 to 195 °C

**Query** Using the record for CCC1c2ccc(C#N)n2-c2ccc(C(F)(F)F)cc2N1S(=O)(=O)c1ccc(O)c(C)c1 (stereo not drawn) [Example 59] , report its melting point.
**Result** 194 to 196 °C

**Query** Bench note: what melting point did CC[C@H]1c2ccc(C#N)n2-c2cc(F)c(F)cc2N1S(=O)(=O)c1ccc(O)c(C)c1 [Example 11B] show?
**Result** 208 to 210 °C

**Query** Requested field: melting point. Item: CCC1c2cccn2-c2ccc(F)cc2N1C(=O)c1cccc(O)c1 (stereo not drawn) [Example 126]
**Result** 115 to 117 °C

**Query** Tell me the measured melting point of CC[C@H]1c2ccc(C#N)n2-c2cc(F)c(F)cc2N1S(=O)(=O)c1ccc(O)cc1 [101 (S)] , please.
**Result** 191 to 192 °C

**Query** Requested field: melting point. Item: CCC1c2ccc(C=O)n2-c2ccc(F)cc2N1S(=O)(=O)c1ccc(O)c(C)c1 (stereo not drawn) [Example 25]
**Result** 192 to 194 °C

**Query** Find the recorded melting point belonging to CC[C@H]1c2ccc(C#N)n2-c2ccc(Br)cc2N1S(=O)(=O)c1ccc(O)cc1 [Example 89] and report it.
**Result** 189 to 191 °C

**Query** I have this compound here, CCC1c2cccn2-c2ccc(F)cc2N1C(=O)c1ccc(O)cc1 (stereo not drawn) [Example 118] , and I need its recorded melting point.
**Result** 165 to 167 °C
